Biological target: DPP-IV (Homo sapiens)
Sequence (P27487 whole entry): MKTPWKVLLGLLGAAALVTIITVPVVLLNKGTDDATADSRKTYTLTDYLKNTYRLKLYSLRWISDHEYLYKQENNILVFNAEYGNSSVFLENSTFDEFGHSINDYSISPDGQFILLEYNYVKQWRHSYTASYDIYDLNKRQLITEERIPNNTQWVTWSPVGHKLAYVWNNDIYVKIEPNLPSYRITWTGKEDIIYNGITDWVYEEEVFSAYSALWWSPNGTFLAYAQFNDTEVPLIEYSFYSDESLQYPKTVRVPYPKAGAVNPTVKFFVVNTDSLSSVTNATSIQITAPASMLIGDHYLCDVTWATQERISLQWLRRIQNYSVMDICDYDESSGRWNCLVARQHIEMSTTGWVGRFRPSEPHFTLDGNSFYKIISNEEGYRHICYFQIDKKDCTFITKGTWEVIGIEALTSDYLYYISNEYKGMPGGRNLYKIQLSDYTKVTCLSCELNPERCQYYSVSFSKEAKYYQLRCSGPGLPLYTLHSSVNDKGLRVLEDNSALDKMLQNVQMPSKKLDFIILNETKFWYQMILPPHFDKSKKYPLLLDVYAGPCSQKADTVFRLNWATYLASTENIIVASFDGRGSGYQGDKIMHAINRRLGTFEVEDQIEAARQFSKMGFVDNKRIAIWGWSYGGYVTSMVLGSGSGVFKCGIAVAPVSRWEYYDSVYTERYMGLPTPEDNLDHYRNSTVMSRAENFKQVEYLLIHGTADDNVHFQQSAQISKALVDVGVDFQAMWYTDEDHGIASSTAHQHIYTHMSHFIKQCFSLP
Assay: biochemical
# IC50 listing for each entry below
Could you give me the number in µM? Just the number is fine.

*Q* Indicate the recorded IC50 value for this compound: Oc1cc(O)c2c(c1)O[C@H](c1ccc(O)c(O)c1)[C@H](O)C2 [(-) - Epicatechin]
*A* 104

*Q* Indicate the recorded IC50 value for this compound: Oc1cc(O)c2c(c1)O[C@H](c1cc(O)c(O)c(O)c1)[C@@H](O)C2 [Gallocatechin]
*A* 81.9

*Q* Indicate the recorded IC50 value for this compound: O=C1c2c(O)cc(O)cc2OC(c2ccc(O)c(O)c2)C1O (stereo not drawn) [Taxifolin]
*A* 78.9

// provenance: paper PMC10784678
